assay_system: N-terminally FLAG-tagged PARP2 (amino acids 1-583) (Homo sapiens)
Construct: N-terminally FLAG-tagged PARP2 (amino acids 1-583)
Sequence (Q9UGN5 whole entry, the tested form may be a part): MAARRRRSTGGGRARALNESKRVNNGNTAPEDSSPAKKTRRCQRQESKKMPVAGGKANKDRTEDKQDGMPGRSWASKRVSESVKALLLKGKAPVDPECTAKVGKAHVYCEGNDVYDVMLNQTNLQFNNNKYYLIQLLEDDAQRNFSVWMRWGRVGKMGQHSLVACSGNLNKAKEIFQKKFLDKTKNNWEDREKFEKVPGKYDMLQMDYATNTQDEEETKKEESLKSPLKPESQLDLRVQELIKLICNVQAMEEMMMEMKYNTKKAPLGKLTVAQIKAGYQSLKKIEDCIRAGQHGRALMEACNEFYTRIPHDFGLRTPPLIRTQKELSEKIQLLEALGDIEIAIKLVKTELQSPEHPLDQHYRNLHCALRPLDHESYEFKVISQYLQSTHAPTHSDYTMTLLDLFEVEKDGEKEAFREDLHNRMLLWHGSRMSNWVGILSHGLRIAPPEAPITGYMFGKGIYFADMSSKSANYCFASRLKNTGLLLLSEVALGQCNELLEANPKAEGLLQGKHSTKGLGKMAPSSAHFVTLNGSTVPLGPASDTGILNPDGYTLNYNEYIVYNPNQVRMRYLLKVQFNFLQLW
method_notes: PARP2 probe displacement HTRF assay
Assay type: binding
assay_conditions: binned Kd, PARP2 probe displacement HTRF
outcome_measure: Kd

Please review the following examples before continuing.
1. CNC(=O)c1ccc(N2CCC(N3CCC(c4ccc(Cl)c(=O)[nH]4)C3)CC2)cn1 (single isomer, unassigned) [Compound 201a]: > 10000 nM
2. CNC(=O)c1ccc(N2CCC(N3CCC(c4cc5ccc(C(F)(F)F)cc5c(=O)[nH]4)C3)CC2)cn1 (racemic) [Compound 177rac]: > 10000 nM
3. N#Cc1ccc(N2CCC(N3CCC(c4nc5ccccc5c(=O)[nH]4)C3)CC2)nc1 (single isomer, unassigned) [Compound 55a]: 1000 to 10000 nM
4. CNC(=O)c1ccc(N2CCC(N3CCC(c4nc5[nH]nc(C(F)(F)F)c5c(=O)[nH]4)C3)CC2)cn1 (single isomer, unassigned) [Compound 162a]: 100 to 1000 nM
5. CNC(=O)c1ccc(N2CCC(N3CCC(C)(c4nc5ccccc5c(=O)[nH]4)C3)CC2)cn1 (single isomer, unassigned) [Compound 67a]: 1000 to 10000 nM
6. CNC(=O)c1ccc(N2CCC(N3CCC(c4nc5c(Cl)cccc5c(=O)[nH]4)C3)CC2)cn1 (single isomer, unassigned) [Compound 52b]: 100 to 1000 nM

Query: Provide measured Kd value, entry: O=c1[nH]c(C2CCN(C3CCN(c4ccc(-c5ncc[nH]5)cc4)CC3)C2)nc2ccccc12 (single isomer, unassigned) [Compound 76b]
Reply: < 10 nM

Query: Provide measured Kd value, entry: CNC(=O)c1ccc(N2CCC(N3CCC(c4cc5c(C(F)(F)F)cccc5c(=O)[nH]4)C3)CC2)cn1 (single isomer, unassigned) [Compound 167a]
Reply: > 10000 nM

Query: Provide measured Kd value, entry: CCc1cnc(C2CCN(C3CCN(c4ccc(C(=O)NC)nc4)CC3)C2)[nH]c1=O (racemic) [Compound 42rac]
Reply: 1000 to 10000 nM

Query: Provide measured Kd value, entry: CNC(=O)c1ccc(N2CCC(N3CCC(c4cc5ccc(F)cc5c(=O)[nH]4)C3)CC2)c(C)n1 (single isomer, unassigned) [Compound 196b]
Reply: 1000 to 10000 nM

Query: Provide measured Kd value, entry: N#Cc1ccc(N2CCC(N3CCCC(c4nc5ccccc5c(=O)[nH]4)C3)CC2)nc1 (single isomer, unassigned) [Compound 74b]
Reply: 1000 to 10000 nM

Query: Provide measured Kd value, entry: CNC(=O)c1ccc(N2CCC(N3CCCC(c4ccc(C5CC5)c(=O)[nH]4)C3)CC2)cn1 (single isomer, unassigned) [Compound 126b]
Reply: > 10000 nM

Sourced from patent US20250152585A1
